# System: Tov112D
# Method Notes: Primary qHTS to identify gynecologic anti-cancer compounds using libraries of approved drugs and bioactive compounds (AID 1345084); note: nearly all actives have a fitted effect of over 55% in size
# Measurement Conditions: Gynecologic cancer cell panel viability, ATPlite luminescence, 48 h; series mostly up to 57.5 µM
Inconclusive results are not listed. The source made the active and inactive calls. Calls come from the whole dose curve; as a rule, active = well fitted cell-killing curve with a large enough effect; inconclusive = small, poorly fitted or top-dose-only effect, or effect the other way; inactive = flat fitted curve, though single readings scatter.
Possible outcomes: yes for active, no for inactive

[
  {
    "Compound": "CN(C)Cc1ccc(-c2nc3cccc4c3n2CCNC4=O)cc1",
    "Label Class": "no"
  },
  {
    "Compound": "CCOc1ccc(Nc2nc(-c3c(C)nc4ccccn34)cs2)cc1",
    "Label Class": "yes"
  },
  {
    "Compound": "CCN(CC)CCNC(=O)c1ccc(N)cc1",
    "Label Class": "no"
  },
  {
    "Compound": "Cc1cccc(C)c1OCC(C)N (stereo not given)",
    "Label Class": "no"
  },
  {
    "Compound": "COCCOC(=O)C1=C(C)NC2=C(C(=O)CC(c3ccccc3OC)C2)C1c1cccc(O)c1 (stereo not given)",
    "Label Class": "no"
  }
]

* * *

# System: astro
# Method Notes: Drug repurposing screens with cells derived from glioblastoma tumor samples (AID 1345199); note: nearly all actives have a fitted effect of over 40% in size
# Measurement Conditions: viability, ATP luminescence, 48 h; series mostly up to 45.9 µM
Results filed as inconclusive are left out. The source made the active and inactive calls. Calls follow the shape of the dose curve; as a rule, active = well fitted inhibition curve with a large enough effect; inconclusive = small, poorly fitted or top-dose-only effect; inactive = flat fitted curve, though single readings scatter.
Possible outcomes: Yes = active, No = inactive

[
  {
    "Compound": "O=c1[nH]cnc2c1ncn2[C@H]1CC[C@@H](CO)O1",
    "Label Class": "No"
  },
  {
    "Compound": "COc1cc2ncnc(Nc3ccc(F)c(Cl)c3)c2cc1OCCCN1CCOCC1",
    "Label Class": "Yes"
  },
  {
    "Compound": "CCN(CC)CCOC(=O)c1ccc(N)cc1",
    "Label Class": "No"
  },
  {
    "Compound": "CC(=O)CCCCn1c(=O)c2c(ncn2C)n(C)c1=O",
    "Label Class": "No"
  },
  {
    "Compound": "Cc1cccc(C)c1OCC(C)N (configuration not stated)",
    "Label Class": "No"
  },
  {
    "Compound": "O=C1NC(=O)C(c2ccccc2)(c2ccccc2)N1",
    "Label Class": "No"
  },
  {
    "Compound": "CC1(C)O[C@H]2C[C@@H]3[C@H]4CCC5=CC(=O)C=C[C@]5(C)[C@@]4(F)[C@@H](O)C[C@]3(C)[C@]2(C(=O)CO)O1",
    "Label Class": "No"
  }
]

* * *

Here the recorded cell viability, % of control (lower = more cytotoxic) is given for each entry.
# Method Notes: High-throughput drug toxicity screening in the BPDCN cell line Gen2.2 (AID 1224824);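 note: cells exposed to compounds for 48 h before reading; 100% = DMSO and 0% = bortezomib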
# Measurement Conditions: Gen2.2 BPDCN cells; at 45.8 µM (top of the series) unless noted
Observed Property: cell viability, % of control (lower = more cytotoxic) (%)

[
  {
    "Compound": "NC1CCC(Nc2nc(Nc3ccc(C(=O)N4CCCCC4)cc3)c3ncn(-c4cccc(F)c4)c3n2)CC1 (centres undefined)",
    "Reading": 208
  },
  {
    "Compound": "COc1ccc2c(Oc3ccc(NC(=O)c4c(C)n(CC(C)(C)O)n(-c5ccccc5)c4=O)cc3F)ccnc2c1",
    "Reading": 16.8
  },
  {
    "Compound": "COc1ccc2c(Oc3ccc(NC(=O)c4c(C)n(CC(C)(C)O)n(-c5ccccc5)c4=O)nc3)ccnc2c1",
    "Reading": 29.7
  },
  {
    "Compound": "N#Cc1ccc(NC(=O)Nc2ccccc2Br)c2n[nH]nc12",
    "Reading": 183
  }
]
